system: HT29 colon; test: NCI tumour cell line growth inhibition, 48 h
measuredQuantity: TGI

Entry COc1cc(/C=C/C(=O)/C=C/c2ccc(-n3ccnc3C)cc2)ccc1O — recorded TGI = 3.9 µM

Reported TGI for O=[N+]([O-])C(/C=N/Nc1ccccc1)/C=N/Nc1ccccc1 was > 100 µM

Lab book: TGI of O=C(c1ccc(Cl)cc1)N(C(=S)N1CCN(c2ccccn2)CC1)C1CCCCC1 noted as > 100 µM

Measured TGI of CC(C)(C)OC(=O)CN1CCNCCN(CC(=O)OC(C)(C)C)CCNCC1 : > 100 µM

GET /value?item= C=C1CC(Cn2ccc(=O)[nH]c2=O)(c2ccc(Cl)cc2)OC1=O (stereo unspecified) &field=TGI returns 13.4 µM

Recorded result, O=C(/C=C/c1cccc(Oc2ccccc2)c1)NCc1ccc(C(=O)NCCc2ccccc2)cc1 , TGI: > 100 µM

Per the records, this molecule ( CN(c1ccc(C(=O)c2ccc(N(C)S(C)(=O)=O)cc2)cc1)S(C)(=O)=O ) has TGI equal to > 100 µM

So, O=C1C(c2ccc(Br)cc2)=[N+]([O-])c2ccccc21 ? Its TGI was 43.8 µM

The reported TGI of the molecule O=C(Nc1ccccc1)Nc1ccc2cc3ccc(NC(=O)Nc4ccccc4)cc3nc2c1 was 3.73 µM

Record Cc1sc2c(c1C)/C(=N\O)c1cccn1-2 . Reported TGI: > 100 µM

TGI reading for COC(=O)c1c(O)ccc2[nH]c3c(O)c4ccccc4cc3c12 : > 100 µM

Data point: CC(C)(C)c1cc(OCc2nn3c(Cc4ccccc4)nnc3s2)c(Cl)cc1OCc1nn2c(Cc3ccccc3)nnc2s1 ; TGI = > 100 µM

The reported TGI of the molecule COc1ccc2c3c([nH]c2c1[N+](=O)[O-])C(C)N(Cc1ccccc1)CC3 (stereo unspecified) was 13.7 µM

Consider CCOCCCn1c2c(c3c(O)cccc31)C(=O)c1ccccc1-2 . Its measured TGI is > 100 µM

TGI in this record for c1ccc2c3c([nH]c2c1)[C@H]1C2CCCCN2CN1CC3 (stereo partly specified) : > 100 µM

So, NC1=NS(=O)(=O)Nc2nc(-c3ccccc3)[nH]c21 ? Its TGI was > 100 µM

Data point: CCOC(=O)c1nc2ccc(C(F)(F)F)cc2nc1Nc1ccc(Cl)c(Cl)c1 ; TGI = > 100 µM

Quick note, TGI for CCOC(=O)C(=O)CC1=Nc2ccccc2SC(c2cccc(C)c2)C1 (stereo unspecified) landed at 29.8 µM

The reported value for COc1cc(OC)cc(-c2n/c(=C\c3c(O)[nH]c4ccc(OC)cc34)cc3c2=Nc2ccccc2-3)c1 in terms of TGI is 4.15 µM

Entry O=S(=O)(O)c1cc(O)c(N=Nc2ccc(O)cc2O)c2ccccc12 — recorded TGI = > 100 µM

Value of measured TGI for the entry O=C(/C=C(\S/C=C(/c1ccccc1)N1CCn2c(C(=O)c3ccccc3)c(C(=O)c3ccccc3)c(C(=O)c3ccccc3)c21)C(=O)c1ccccc1)c1ccccc1 : > 10 µM

====

system: MDA-MB-435; assay: NCI tumour cell line growth inhibition, 48 h
measuredQuantity: TGI (µM)
# number only, unit µM dropped from output

Input COc1ccc2c(c1)c(-c1nc(-c3c[nH]c4ccncc34)cs1)cn2C . Output TGI: 2.96

// CCN(CC)CCN1C(=O)c2c(c3c4ccccc4[nH]c3c3ccc4ccccc4c23)C1=O : TGI value = 3.17

In plain terms, CCCCCCCCCCCCCCC(O)C[N+](C)(CCO)CCO (centres undefined) has a documented TGI of 21.3

Briefly, TGI measured for NC(=O)c1cc([N+](=O)[O-])c(Cl)c([N+](=O)[O-])c1Cl : 3.73

Memo: N=c1c2c(=S)n(-c3ccccc3)c(=S)n(-c3ccccc3)c2nc(SCCN2CCCC2)n1-c1ccccc1 , reported TGI: 3.82

For reference, reported TGI for O=C(/C=C\c1ccc([N+](=O)[O-])cc1)c1ccccc(=O)c1O stands at 7.55
